# TEST_METHOD_NOTES: NCI Yeast Anticancer Drug Screen. Data for the mlh1 rad18 strain (AID 175)
# SETUP_CONDITIONS: S. cerevisiae mlh1 rad18 strain growth inhibition; at 50.0 µM; active compounds read high
The panel holds about 79,000 compounds, 15% with a hit somewhere; the sample as a whole holds those more often. Active and inactive are the calls of the source. Cut-off read from the data, not from the text of the source: active = growth inhibition above about 70%; inactive = the rest.
REPORTED_ENDPOINT: growth inhibition

Here is how some molecules turned out for growth inhibition.
[
  {
    "MOLECULE": "CN(C)CCCC1c2ccccc2Oc2ccc(C(F)(F)F)cc21 (centres undefined)",
    "REPORTED_ENDPOINT": "growth inhibition",
    "READING": "31.2% (inactive)"
  },
  {
    "MOLECULE": "CCSC(C(O)C(O)C(O)C(O)CO)n1cnc2c(SC)ncnc21 (centres undefined)",
    "REPORTED_ENDPOINT": "growth inhibition",
    "READING": "-3.85% (inactive)"
  },
  {
    "MOLECULE": "C=CCOC(=O)NC(CCC(N)=O)C(=O)O (centres undefined)",
    "REPORTED_ENDPOINT": "growth inhibition",
    "READING": "16.3% (inactive)"
  }
]

Query: Tell me the measured growth inhibition of "Cc1ccccc1C(=O)OC1CCCC1" , please.
Result: 0.5% (inactive)

Query: Tell me the measured growth inhibition of "O=C(Nc1ccccc1)Sc1nc2ccccc2s1" , please.
Result: 27.6% (inactive)

Query: Tell me the measured growth inhibition of C=CCNC(=S)N1CC(C)C(=O)Nc2ccccc21 (centres undefined) , please.
Result: -14.4% (inactive)

Query: Tell me the measured growth inhibition of "CCCCSc1nc2ccccc2c(=O)[nH]1" , please.
Result: 3.1% (inactive)

Query: Tell me the measured growth inhibition of CC(CCc1cccc2ccccc12)C(=O)O (centres undefined) , please.
Result: 43.3% (inactive)

Query: Tell me the measured growth inhibition of "Nc1nnnn1CCc1ccccc1" , please.
Result: 9.75% (inactive)

Query: Tell me the measured growth inhibition of "Cc1ccc(C)c(NC(=O)C(=O)CC(=O)c2cccc3ccccc23)c1" , please.
Result: -21.1% (inactive)

---

# TEST_METHOD_NOTES: NCI Yeast Anticancer Drug Screen. Data for the sgs1 mgt1 strain (AID 161);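 note: 0% = growth of cultures given vehicle only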
# SETUP_CONDITIONS: S. cerevisiae sgs1 mgt1 strain, at 50.0 µM, active compounds read high
The panel holds about 79,000 compounds, 15% with a hit somewhere; the sample as a whole holds those more often. Calls of active or inactive are those of the source. No stated cut-off is given here; in the data, active means growth inhibition above about 70%; inactive means the rest.
REPORTED_ENDPOINT: growth inhibition

Here is how some compounds turned out for growth inhibition.
[
  {
    "COMPOUND": "CCN(CC)CCCC#N",
    "growth inhibition": "-8.8% (inactive)"
  },
  {
    "COMPOUND": "Nc1cc(N)n(C2=NCCN2)n1",
    "growth inhibition": "8% (inactive)"
  },
  {
    "COMPOUND": "NC(=O)N/N=C/c1ccc2oc3ccccc3c2c1",
    "growth inhibition": "18.4% (inactive)"
  },
  {
    "COMPOUND": "CCN(CC)CCNC(=O)c1c(C)cc(C)cc1C",
    "growth inhibition": "-0.3% (inactive)"
  },
  {
    "COMPOUND": "NN1C(=O)Cc2ccc(Cl)cc21",
    "growth inhibition": "-2.9% (inactive)"
  },
  {
    "COMPOUND": "COc1cc2c(c([N+](=O)[O-])c1)NC(=O)CS2",
    "growth inhibition": "-17.2% (inactive)"
  },
  {
    "COMPOUND": "CSc1nccc(=O)n1C",
    "growth inhibition": "-9.8% (inactive)"
  },
  {
    "COMPOUND": "Nc1ccccc1SC1CC(=O)N(c2ccc(Oc3ccc(Cl)cc3)cc2)C1=O (configuration not stated)",
    "growth inhibition": "13.8% (inactive)"
  }
]

Query: Tell me the measured growth inhibition of "COc1c(C)cc2c(C(C)C)c(O)c(O)c(C=O)c2c1O" , please.
Result: 80.5% (active)

Query: Tell me the measured growth inhibition of "COc1c(-c2cccs2)oc2c(CC(=O)O)cccc2c1=O" , please.
Result: 28.1% (inactive)

Query: Tell me the measured growth inhibition of "CCOC(=O)C1(C(=O)OCC)C(C#N)(C#N)C1(C#N)C#N" , please.
Result: -7.2% (inactive)

Query: Tell me the measured growth inhibition of "O=S(=O)(c1ccc(Cl)cc1)c1ccccc1C1=NCCN1" , please.
Result: -5.7% (inactive)

Query: Tell me the measured growth inhibition of "COc1cccc(Oc2cccc[n+]2CC(C)=O)c1" , please.
Result: 3.75% (inactive)

Query: Tell me the measured growth inhibition of "Brc1cc(Br)c(Br)cc1Br" , please.
Result: 8.6% (inactive)

---

# TEST_METHOD_NOTES: NCI Yeast Anticancer Drug Screen. Data for the rad50 strain (AID 155);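 note: 0% = growth of vehicle-only cultures of the same strain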
# SETUP_CONDITIONS: S. cerevisiae rad50 strain growth inhibition; at 50.0 µM; active compounds read high
This is part of a sample that, as a whole, favours compounds with a hit. Of some 79,000 tested, about 15% had one in any assay.
# growth inhibition values compiled below
Record the value in %, omitting the unit from your answer.

Query: Tell me the measured growth inhibition of "O=C(Oc1ccccc1)Oc1c(Cl)cc([N+](=O)[O-])cc1[N+](=O)[O-]" , please.
Result: 25

---

# TEST_METHOD_NOTES: NCI Yeast Anticancer Drug Screen. Data for the rad50 strain (AID 155);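 note: 0% = growth of vehicle-only cultures of the same strain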
# SETUP_CONDITIONS: S. cerevisiae rad50 strain growth inhibition; at 50.0 µM; active compounds read high
About 79,000 compounds went through this panel and 15% of them were active in at least one assay; those are over-represented in the sample as a whole.
REPORTED_ENDPOINT: growth inhibition (%)
Record the value in %, omitting the unit from your answer.

Here is how some molecules turned out for growth inhibition.
[
  {
    "MOLECULE": "C/C(=N\\NC(=S)Nc1ccc([N+](=O)[O-])cc1S(=O)(=O)O)c1ccccn1",
    "READING": 12.6
  },
  {
    "MOLECULE": "CC(=O)Nc1c(C(N)=O)cnn1-c1ccccc1",
    "READING": 17.9
  },
  {
    "MOLECULE": "Cc1c(C)n(S(=O)(=O)c2ccccc2)c2ccccc12",
    "READING": 20.6
  },
  {
    "MOLECULE": "CCOC(=O)Nc1n[nH]nc1Cl",
    "READING": -21.5
  },
  {
    "MOLECULE": "CCCCCCC1=CCCC1=O",
    "READING": -3.5
  },
  {
    "MOLECULE": "CCC1(C)N=C(N)Nc2nc3ccccc3n21 (stereo unspecified)",
    "READING": -9.95
  }
]

Query: Tell me the measured growth inhibition of "NC(=O)N/N=C(\CCC(=O)N(Cc1ccccc1)Cc1ccccc1)CC(=O)c1ccc(F)cc1" , please.
Result: -1.5

Query: Tell me the measured growth inhibition of "CC(=O)Nc1ccc(NC(=O)Nc2cc(Cl)ccc2C)cc1" , please.
Result: 14.3

Query: Tell me the measured growth inhibition of "Cc1ccc(O)c(C(C)(C)C)c1" , please.
Result: 14.9

Query: Tell me the measured growth inhibition of "O=C1OC(c2ccccc2)=N/C1=C\c1cc2c(cc1Cl)OCO2" , please.
Result: 4.05

Query: Tell me the measured growth inhibition of "O=C(COc1ccccc1)OC1CCCC1" , please.
Result: 17.6

Query: Tell me the measured growth inhibition of "C#CC[N+](CC)(CC)CC" , please.
Result: 2.6

---

# TEST_METHOD_NOTES: NCI Yeast Anticancer Drug Screen. Data for the mec2-1 strain (AID 157)
# SETUP_CONDITIONS: S. cerevisiae mec2-1 strain, at 50.0 µM, active compounds read high
About 79,000 compounds went through this panel and 15% of them were active in at least one assay; those are over-represented in the sample as a whole. Calls of active or inactive are those of the source. No stated cut-off is given here; in the data, active means growth inhibition above about 70%; inactive means the rest.
REPORTED_ENDPOINT: growth inhibition

Here is how some compounds turned out for growth inhibition.
[
  {
    "COMPOUND": "C/C=C/C(O)CC (centres undefined)",
    "REPORTED_ENDPOINT": "growth inhibition",
    "READING": "-38.4% (inactive)"
  },
  {
    "COMPOUND": "COc1ccccc1/C=C1\\CCC(CN(C)C)C1=O (centres undefined)",
    "REPORTED_ENDPOINT": "growth inhibition",
    "READING": "89.5% (active)"
  },
  {
    "COMPOUND": "C=CCc1cc(C(Cc2ccccc2)NC(C)C)cc(OCc2ccccc2)c1OCc1ccccc1 (centres undefined)",
    "REPORTED_ENDPOINT": "growth inhibition",
    "READING": "11.5% (inactive)"
  }
]

# evaluate next
Query: Tell me the measured growth inhibition of "CC/C=N/Nc1cn[nH]c(=O)c1Cl" , please.
Result: 0.1% (inactive)
